These measurements were taken from PubChem BioAssay.

# PROTOCOL_NOTES: yeast growth modulation, basal conditions, primary screen, YJM789 clinical isolate, OD600, 24 h (AID 1089);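 further: growth of clinical yeast isolate S. cerevisiae YJM 789 seeded 1000 cells per well; test concentration not given here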
# COND: S. cerevisiae YJM789 growth, higher = more signal, called active from +8 up or from −8 down
Give z-score for every item shown.
Form: value (number only, do not type unit).

Sample CCOC(=O)[C@H](Cc1ccccc1)NC(=O)CCC1CC(OC(=O)NCc2ccc3c(c2)OCO3)CC2(CCCC(COC(=O)NCCCN3CCCC3=O)O2)O1 (some centres not stated) ; z-score observed: -0.395

The compound listed as `COc1ccc(OC[C@@H](CO)OC)cc1` shows z-score equal to -0.368

Kindly note the recorded z-score for `O=C1C=C[C@@H](O)[C@@H]2[C@@H]3C(=O)N(Cc4ccccc4)C(=O)[C@@H]3CC[C@@H]12` , which is 0.0129

get_value(item= `C[C@@H](c1ccccc1)N1C(=O)[C@H]2[C@H]3[C@H](O)[C@H](O)CC(=NOC[C@@H](O)COCc4ccco4)[C@H]3CC[C@H]2C1=O` , readout=z-score) returns 0.342

The recorded z-score for entry `O=C1[C@H]2[C@H]3[C@H](O)[C@H](O)CC(=NOC[C@@H](O)COCc4ccco4)[C@@H]3CC[C@H]2C(=O)N1c1cccc(Oc2ccccc2)c1` equals 0.321

Reported z-score ( `CC(C)(C)N1C(=O)[C@H]2[C@H]3[C@H](O)[C@H](O)CC(=NNC(=O)OCc4ccccc4)[C@@H]3CC[C@H]2C1=O` ) = -0.668

# z-score (compound: `CCOC(=O)NN=C1C[C@@H](O)[C@@H](O)[C@@H]2[C@@H]3C(=O)N(CC)C(=O)[C@@H]3CC[C@H]12` ) is 0.213

---

# PROTOCOL_NOTES: cell viability in Huh7 cells, primary screen, cytotoxicity control for HCV replication inhibitor project, CellTiter-Glo luminescence, basal, 48 h (AID 1143);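 further: Huh7 hepatoma cells carrying a hepatitis C replication reporter with no stimulus; test concentration not given here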
# COND: Huh7 HCV replicon, higher = more signal, called active from +8 up or from −8 down
Classification field: rule met = z-score at or over 0.2; rule not met = z-score under 0.2.

Query :: Does z-score meet or surpass 0.2 for `COc1ccc(-c2cnnc(CCCn3ccnc3-c3ccccc3)n2)cc1` ?
Result :: rule not met

Query :: Given `COC(=O)[C@@H]1CC[C@H](C)[C@@H](c2ccc(Br)cc2)N1C[C@H](O)CN=[N+]=[N-]` , state whether its z-score is at least 0.2.
Result :: rule not met

Query :: Dear colleague, could you confirm whether `COc1ccc(COC(=O)NN=C2C[C@@H](O)[C@@H](O)[C@@H]3[C@@H]4C(=O)N([C@@H](C)c5ccccc5)C(=O)[C@@H]4CC[C@@H]23)cc1` has z-score at or above 0.2?
Result :: rule met

Query :: Given COC(=O)[C@H](C)NC(=O)CCC1CC(OC(=O)NCc2ccc3c(c2)OCO3)CC2(CCCC(COC(=O)NCc3ccccc3)O2)O1 (stereo partly drawn) , state whether its z-score is at least 0.2.
Result :: rule not met

Query :: I'd appreciate it if you could say whether `CC(=O)OC[C@H]1O[C@@H](ON=C(C)C)[C@H](OC(C)=O)[C@@H](OC(C)=O)[C@@H]1OC(C)=O` has z-score at least equal to 0.2.
Result :: rule met

Query :: In plain terms: is recorded z-score at least 0.2 for CC(C)=NOC(C)CN1CCCc2nc(C)c(C)cc21 (stereo not drawn) ?
Result :: rule met

Query :: Check the entry `COC(=O)C1=C(C)N(Cc2ccccc2)C2=C3C(=O)OCC[C@@H]3[C@@](O)(C(=O)OC)C(=O)N2[C@@H]1c1ccccc1` : does z-score equal or exceed 0.2?
Result :: rule not met

Query :: Could you please find out whether `O=C1[C@H]2[C@H]3[C@H](O)[C@H](O)CC(=NOC[C@@H](O)COCc4ccco4)[C@@H]3CC[C@H]2C(=O)N1Cc1ccccc1` has z-score that meets 0.2 or exceeds it?
Result :: rule not met
